- Tested on: Mycobacterium tuberculosis
- assay_name: Antitubercular activity against Mycobacterium tuberculosis H37Rv ATCC 27294 assessed as growth inhibition after 24 hr by BACTEC-460 radiometric susceptibility assay
- Type: functional
- run_conditions: H37Rv ATCC 27294, 24 h
Reported MIC values for a set of compounds
experimental_endpoint: MIC (mg/L)

> print(dat)
                                   compound  experimental.endpoint  unit.abbrev  number
1  CCCCCCCCCCCCCCCC(=O)O[C@H]1CCC(=O)c2ccccc21 [4-O-PALMITOYL-ALPHATETRALONE]                    MIC         mg/L     100
2  O=C1CC[C@H](O[C@@H]2O[C@H](CO)[C@@H](O)[C@H](O)[C@H]2O)c2ccccc21 [TETRALONE-4-O-BETA-D-GLUCOPYRANOSIDE]                    MIC         mg/L     100
3  O=C1CC[C@H](O)c2ccccc21 [(-)-4-HYDROXY-ALPHA-TETRALONE]                    MIC         mg/L      50
